system: RPMI-8226; assay: NCI tumour cell line growth inhibition, 48 h
Activity calls are given as the source filed them. No stated cut-off is given here; in the data, active = GI50 up to about 1.1 µM and inactive = higher.
A correct response names exactly one class from active, inactive

Past entries and their recorded results:
molecule: c1ccc(/C(=N\Nc2nc3ccccc3s2)c2ccccn2)cc1
assigned label: inactive
--
molecule: O=C(OC1C(Oc2ccccc2COC(=O)C2(O)C=CCCC2=O)OC(CO)C(O)C1O)c1ccccc1 (stereo not given)
assigned label: inactive
--
molecule: O=C1c2c(ccc3c2CCC3)CC12Cc1ccccc1C2
assigned label: inactive
--
molecule: O=C(CC(=O)N(C(=O)/C=C\c1ccccc1)c1ccc(Cl)cc1)N1N=C(c2ccccc2)C(/N=N/c2cccc([N+](=O)[O-])c2)C1=O (stereo not given)
assigned label: inactive
--
molecule: Cc1cn(C2CC(O)C(CO)O2)c(=O)n2nnnc12 (stereo not given)
assigned label: inactive

Asked: What call does the record list for COc1cc(C(c2cccc3ccccc23)N2C(=O)CCC2C(=O)NCc2ccccc2)cc(OC)c1OC (stereo not given) ?
Given back: inactive

Asked: What call does the record list for CC1(C)CCC[C@@]2(C)C1CCC1(C)C(CCc3ccoc3)/C(=C/OS(=O)(=O)O)CCC12 (stereo not given in full) ?
Given back: inactive

Asked: What call does the record list for "CN(C)CC/C(=N\Nc1ccc(Cl)cc1)c1ccccc1" ?
Given back: active

Asked: What call does the record list for CSC12c3cc(C)n(-c4ccc([N+](=O)[O-])cc4)c3CC(C)(C)CN1C(=O)C2Oc1ccccc1 (stereo not given) ?
Given back: inactive

Asked: What call does the record list for "O=C(CCc1cc(O)cc(O)c1)NCCCNC(=O)CCc1cc(O)cc(O)c1" ?
Given back: inactive

* * *

test system: ACHN; assay: NCI tumour cell line growth inhibition, 48 h
Active and inactive are the calls of the source. Rule as the data show it: active = GI50 up to about 1.1 µM and inactive = higher.
A correct response names exactly one class from T (active), F (inactive)

compound: CC[P+](C)(C)CC
target: ACHN
assigned label: F
//
compound: OCC1OC(n2cnc3c(SCc4ccccc4)ncnc32)C(O)C1O (stereo unspecified)
target: ACHN
assigned label: F
//
compound: O=C1OC(OCC#CCOC2OC(=O)C(Cl)=C2Cl)C(Cl)=C1Cl (stereo unspecified)
target: ACHN
assigned label: F

Asked: What call does the record list for "COc1ccc(C#Cn2nnc3ccccc32)cc1" ?
Given back: F

* * *

system: IGROV-1; test: NCI tumour cell line growth inhibition, 48 h
Activity calls are given as the source filed them. Cut-off read from the data, not from the text of the source: active = GI50 up to about 1.1 µM and inactive = higher.
A correct response names exactly one class from true for active, false for inactive

compound: C[N+](C)(C)CC1CCCC(C[N+](C)(C)C)C1=O (stereo not drawn)
target: IGROV-1
assigned label: false

Asked: What call does the record list for C[N+](C)(C)[BH-](Br)C(O)O (stereo not drawn) ?
Given back: false

Asked: What call does the record list for CCOc1cn(C2CC(O)C(CO)O2)c(=O)[nH]c1=O (stereo not drawn) ?
Given back: false

Asked: What call does the record list for "c1ccc2c(c1)ccn1ccc3c4ccccc4nc-3c21" ?
Given back: true

Asked: What call does the record list for "CN(Cc1ccccc1)Cn1ccnc1" ?
Given back: false

Asked: What call does the record list for "CC(=O)Nc1ccc(Cl)c(Cl)c1" ?
Given back: false

* * *

tested on: DU-145; test: NCI tumour cell line growth inhibition, 48 h
Structures can show the parent of a compound that is named as a salt. Active and inactive are the calls of the source. Cut-off read from the data, not from the text of the source: active = GI50 up to about 1.1 µM and inactive = higher.
A correct response names exactly one class from active, inactive

Past entries and their recorded results:
compound: O=c1c(C(c2ccc(O)cc2)c2c(O)oc3ccccc3c2=O)c(O)oc2ccccc12
assigned label: inactive

compound: O=C(CC(=O)N(C(=O)/C=C\c1ccccc1)c1ccc(Cl)cc1)N1N=C(c2ccccc2)C(/N=N/c2cccc([N+](=O)[O-])c2)C1=O (stereo unspecified)
assigned label: inactive

compound: COc1ccc(CC2c3cc(Oc4cc(CC5c6cc(OC)c(OC)cc6CCN5C)ccc4O)c(OC)cc3CCN2C)cc1 (stereo unspecified)
assigned label: inactive

compound: CC(SCc1ccccc1)C(=O)O (stereo unspecified)
assigned label: inactive

compound: CN(C)c1ccc(/N=N/c2ccc3[nH]cnc3c2)cc1
assigned label: inactive

compound: CC12CC3(O)OC(O1)C1(COC(=O)c4ccccc4)C3CC21OC1OC(CO)C(O)C(O)C1O (stereo unspecified)
assigned label: inactive

compound: CCOP1(=O)CC(C)=C(Cl)C(O)C1 (stereo unspecified)
assigned label: inactive

compound: CC[C@@H]1C(=O)OC[C@@H]1Cc1cncn1C [PILOCARPINE HYDROCHLORIDE]
assigned label: inactive

compound: NC(=O)C(=CN1C(=O)CC(=O)NC1=S)C(N)=O
assigned label: inactive

compound: CCN(CCCl)c1cc(CN(C)C)cc(NC(=O)c2ccc(C(=O)Nc3ccccc3)cc2)c1
assigned label: active

Here is another compound to look at.
Asked: What call does the record list for "CCOC1=NC(C(F)(F)F)(C(F)(F)F)N=C(N2CCCCC2)O1" ?
Given back: inactive

* * *

test system: NCI-H522; assay: NCI tumour cell line growth inhibition, 48 h
Calls of active or inactive are those of the source. Rule as the data show it: active = GI50 up to about 1.1 µM and inactive = higher.
A correct response names exactly one class from y (active), n (inactive)

Asked: What call does the record list for CC(C)CC(NC(O)[BH2-][N+](C)(C)C)C(=O)NC(Cc1ccccc1)C(=O)N[C@H]1c2ccsc2/C(=N/O)[C@H]1O (stereo partly specified) ?
Given back: n

Asked: What call does the record list for "CC(C)(C)OC(=O)NCCCNC1(c2cc3ccccc3s2)CCCCC1" ?
Given back: n

Asked: What call does the record list for "COc1ccc(C#Cn2nnc3ccccc32)cc1" ?
Given back: n

* * *

tested on: RXF 631; assay: NCI tumour cell line growth inhibition, 48 h
Activity calls are given as the source filed them. Rule as the data show it: active = GI50 up to about 1.1 µM and inactive = higher.
property label: GI50

Observe how each entry below is paired with its result.
molecule: CCN(CC)C(=O)COc1ccc(Br)cc1Br
GI50: > 100 µM (inactive)
//
molecule: CC(=O)O[C@H]1CC[C@@]2(C)C(CC[C@]3(C)C2CC[C@]2(C)Oc4c(C)cc(O)cc4C[C@@H]23)C1(C)C (stereo partly drawn)
GI50: 5.16 µM (inactive)
//
molecule: CCCn1c(SCC)c2cc3cc4ccccc4cc3cc2c1-c1nc(F)nc(F)n1
GI50: > 100 µM (inactive)

Batch request: GI50 for each of the following molecules.
1. O=C1/C=C(/c2ccc(O)cc2)[C@@H](OC2OC(CO)C(O)C(O)C2O)Cc2ccc(O)cc2O1.O=C1/C=C(/c2ccc(O)cc2)[C@H](O)Cc2ccc(O[C@@H]3OC(CO)C(O)C(O)C3O)cc2O1 (stereo partly drawn)
2. CCOc1ccc(NC(=O)C2=C(C)NC(C)=C(C(=O)Nc3ccc(OCC)cc3)C2c2ccccc2)cc1

Given back:
1. > 100 µM (inactive)
2. > 100 µM (inactive)

Batch request: GI50 for each of the following molecules.
1. CC1=C(C(=O)Nc2ccccc2C)C(/C=C/c2ccccc2)C(C(=O)Nc2ccccc2C)=C(C)N1
2. N#CCc1ccc(C(C#N)/C(CCCC(=O)Nc2cccc([N+](=O)[O-])c2)=N/NC(N)=S)cc1 (stereo not drawn)

Given back:
1: > 100 µM (inactive); 2: 86.5 µM (inactive)

Asked: Suppose we examine the molecule "C[C@H](NC(=O)n1c2ccccc2c2ccccc21)C(=O)O" ; what GI50 value has been reported?
Given back: > 100 µM (inactive)

* * *

system: OVCAR-8; assay: NCI tumour cell line growth inhibition, 48 h
Active and inactive are the calls of the source. No stated cut-off is given here; in the data, active = GI50 up to about 1.1 µM and inactive = higher.
A correct response names exactly one class from 1 = active, 0 = inactive

Past entries and their recorded results:
compound: C[N+](C)(C)CC(=O)N/N=C/c1oc(-c2cccc([N+](=O)[O-])c2)c(-c2cccc([N+](=O)[O-])c2)c1[N+](=O)[O-]
assigned label: 0
//
compound: CC(=O)C(=[N+]=[N-])C(=O)N(C)CCC#N
assigned label: 0
//
compound: COC(=O)C(C(=O)C(=O)Nc1ccc(C)cc1)c1nc2ccc([N+](=O)[O-])cc2nc1O (centres undefined)
assigned label: 0

Asked: What call does the record list for "Cc1cccc2nc3cccc(C(=O)NCCN(C)C)c3nc12" ?
Given back: 1

Asked: What call does the record list for "COc1ccc(/C=C2\OC(=O)C(Cl)=C2c2ccc(OC)cc2)cc1" ?
Given back: 0

Asked: What call does the record list for "Cc1cc([N+](=O)[O-])c(C)c2c1[nH]c1ccc(/C(CCC3CCCC3)=N\N)cc12" ?
Given back: 0

Asked: What call does the record list for "Oc1ccc(/C=C/c2ccc3cccc(O)c3n2)cc1O" ?
Given back: 0

Asked: What call does the record list for "CC1(C)CC[C@]2(C(=O)O)CC[C@]3(C)C(=CC[C@@H]4[C@@]5(C)C[C@H](O)[C@H](O)[C@@](C)(CO)C5=CC[C@]43C)[C@@H]2C1" ?
Given back: 0

Asked: What call does the record list for Cc1nn(C(=O)Cc2ccccc2)c2c1C(c1ccccc1[N+](=O)[O-])SC(=N)N2 (centres undefined) ?
Given back: 0

* * *

What GI50 was measured for each of the following?
test system: UACC-257; experiment: NCI tumour cell line growth inhibition, 48 h
Activity calls are given as the source filed them. No stated cut-off is given here; in the data, active = GI50 up to about 1.1 µM and inactive = higher.

Observe how each entry below is paired with its result.
molecule: NNc1ncc2c(n1)-c1ccccc1OC2
observed: > 100 µM (inactive)
//
molecule: Cc1ccc(C(=O)OC(C)C)cc1/N=N/N(C)C
observed: 27.1 µM (inactive)
//
molecule: C=C[C@]1(C)CC(=O)C(C(C)C=O)[C@]12C(=O)Oc1cccc(C)c1C2=O (some centres undefined)
observed: 17.6 µM (inactive)

Batch request: GI50 for each of the following molecules.
1. CC(C)(C)N1CC2(CCCCC2)C1=O
2. N#Cc1ccc(/N=C(/NCC(=O)O)Nc2cccc3ccccc23)cc1
3. CN(C)CCCN=C(N)N
4. Cc1nnc(Nc2ccccc2)o1

Given back:
1. > 100 µM (inactive)
2. > 10 µM (inactive)
3. > 100 µM (inactive)
4. > 100 µM (inactive)

Batch request: GI50 for each of the following molecules.
1. O=C(/C=C1\N=C(c2ccccc2)N(c2ccc3c(c2)Sc2cc(N4C(=O)/C(=C/C(=O)/C=C/c5ccccc5)N=C4c4ccccc4)ccc2N3)C1=O)/C=C/c1ccccc1
2. CC1(C)COC(c2cccc3c2C(=O)c2cccc(Cl)c2-3)=N1

Given back:
27.4 µM (inactive)
33.7 µM (inactive)
